The reported numbers originate from paper PMC5859971.

# SYSTEM NAME: wild-type mini-SF3b complex (4-protein SF3b complex) (Homo sapiens, UniProt O75533+Q7RTV0)
# Construct: SF3B1 was limited to the HEAT repeat domain from residues 454–1304 and cloned in-frame with an N-terminal Flag tag; Truncated SF3B1 and full-length SF3B3, PHF5A, and SF3B5 were synthesized; made in house; host or cells: SF21 insect cells (baculovirus, pFastBac1)
# Sequence (Q7RTV0 whole entry, the tested form may be a part): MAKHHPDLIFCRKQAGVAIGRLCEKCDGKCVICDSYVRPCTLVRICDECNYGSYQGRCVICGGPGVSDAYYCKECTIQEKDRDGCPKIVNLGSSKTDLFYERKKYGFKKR
# Sequence (Q15393 whole entry, further chain, the tested form may be a part): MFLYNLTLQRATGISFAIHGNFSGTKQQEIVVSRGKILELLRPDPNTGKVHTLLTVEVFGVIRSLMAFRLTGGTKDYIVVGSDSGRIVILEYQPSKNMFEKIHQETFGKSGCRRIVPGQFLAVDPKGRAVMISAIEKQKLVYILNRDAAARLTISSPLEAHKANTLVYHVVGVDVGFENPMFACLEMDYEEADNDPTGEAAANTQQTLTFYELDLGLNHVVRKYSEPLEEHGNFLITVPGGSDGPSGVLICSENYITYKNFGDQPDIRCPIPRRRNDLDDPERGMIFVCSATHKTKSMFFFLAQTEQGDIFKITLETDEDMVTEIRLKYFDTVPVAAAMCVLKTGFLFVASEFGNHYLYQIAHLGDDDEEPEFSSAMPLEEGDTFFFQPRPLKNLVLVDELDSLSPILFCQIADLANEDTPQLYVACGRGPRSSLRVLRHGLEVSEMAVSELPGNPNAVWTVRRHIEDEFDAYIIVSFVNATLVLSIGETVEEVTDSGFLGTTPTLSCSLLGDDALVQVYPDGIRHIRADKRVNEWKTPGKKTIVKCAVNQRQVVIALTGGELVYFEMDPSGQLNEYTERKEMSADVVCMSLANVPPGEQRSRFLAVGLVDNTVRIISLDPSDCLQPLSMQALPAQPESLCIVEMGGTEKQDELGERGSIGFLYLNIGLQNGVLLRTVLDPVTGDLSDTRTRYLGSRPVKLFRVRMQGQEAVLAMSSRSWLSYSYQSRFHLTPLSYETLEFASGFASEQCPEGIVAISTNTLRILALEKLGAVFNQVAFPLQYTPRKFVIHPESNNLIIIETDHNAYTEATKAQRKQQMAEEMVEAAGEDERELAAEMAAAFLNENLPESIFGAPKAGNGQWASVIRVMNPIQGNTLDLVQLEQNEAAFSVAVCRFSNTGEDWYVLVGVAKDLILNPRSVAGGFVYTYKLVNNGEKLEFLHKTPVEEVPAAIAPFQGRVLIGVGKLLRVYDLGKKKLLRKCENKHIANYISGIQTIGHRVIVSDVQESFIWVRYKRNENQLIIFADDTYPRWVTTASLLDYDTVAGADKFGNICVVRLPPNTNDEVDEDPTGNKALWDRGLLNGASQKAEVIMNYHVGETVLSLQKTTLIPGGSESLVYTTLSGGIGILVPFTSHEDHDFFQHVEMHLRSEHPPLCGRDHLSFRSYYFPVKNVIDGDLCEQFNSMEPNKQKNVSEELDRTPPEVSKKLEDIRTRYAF
# Sequence (O75533 454-1304): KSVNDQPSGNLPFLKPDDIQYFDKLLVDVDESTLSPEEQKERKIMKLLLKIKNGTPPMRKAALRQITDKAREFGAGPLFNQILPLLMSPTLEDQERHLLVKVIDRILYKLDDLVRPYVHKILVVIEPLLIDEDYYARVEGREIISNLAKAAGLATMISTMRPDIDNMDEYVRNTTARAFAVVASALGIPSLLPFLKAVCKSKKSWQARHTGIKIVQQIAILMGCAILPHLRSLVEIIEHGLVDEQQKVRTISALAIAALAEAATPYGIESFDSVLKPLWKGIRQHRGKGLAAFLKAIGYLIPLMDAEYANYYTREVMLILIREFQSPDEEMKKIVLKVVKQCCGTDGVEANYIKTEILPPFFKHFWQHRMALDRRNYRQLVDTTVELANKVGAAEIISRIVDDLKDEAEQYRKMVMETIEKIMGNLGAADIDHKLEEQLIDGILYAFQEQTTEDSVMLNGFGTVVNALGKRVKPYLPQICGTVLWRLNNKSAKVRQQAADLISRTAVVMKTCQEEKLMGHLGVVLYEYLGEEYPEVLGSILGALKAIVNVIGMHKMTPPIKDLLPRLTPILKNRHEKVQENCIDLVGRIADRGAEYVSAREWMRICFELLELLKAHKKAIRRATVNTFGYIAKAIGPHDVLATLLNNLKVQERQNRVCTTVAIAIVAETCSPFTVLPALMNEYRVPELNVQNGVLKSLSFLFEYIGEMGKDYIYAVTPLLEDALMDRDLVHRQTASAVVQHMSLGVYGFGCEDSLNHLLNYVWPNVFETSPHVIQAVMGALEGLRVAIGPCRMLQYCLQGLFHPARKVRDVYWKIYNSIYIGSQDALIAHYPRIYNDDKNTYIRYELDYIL
# Sequence (Q9BWJ5 whole entry, further chain, the tested form may be a part): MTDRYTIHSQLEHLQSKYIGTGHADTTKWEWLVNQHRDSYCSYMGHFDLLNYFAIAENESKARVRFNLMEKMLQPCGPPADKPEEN
# PROTOCOL DETAILS: Scintillation proximity assay (SPA) competition with 3H-labeled pladienolide probe
# Format: binding
# CONDITION: competition with 10 nM 3H-labeled pladienolide probe, 25 nM protein; read-out: SPA IC50
PROPERTY NAME: pIC50
One number for each entry, as −log10 of the molar value.

Batch lookup, pIC50 per entry.
1. C/C(=C\C=C\[C@@H](C)c1ccccn1)[C@H]1OC(=O)C[C@H](O)CC[C@@](C)(O)[C@@H](OC(=O)N2CCN(C3CCCCCC3)CC2)/C=C/[C@@H]1C [Compound 6]
2. CCC(O)C(C)C1OC1CC(C)(O)C=CC=C(C)C1OC(=O)CC(O)CCC(C)(O)C(O)C=CC1C (stereo not shown) [Plad F]

Result ::
[6.42, 5.82]
